B1: SLC19A2 (parent)
chain: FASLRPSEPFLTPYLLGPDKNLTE

Variants of: B1
method-description: protein stability index of a GFP-peptide fusion (GPS, HEK-293T) (PSI 1-6); higher = more stable;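 further: lentivirally expressed fusions sorted by FACS into six bins by GFP to DsRed ratio, PSI derived from sequencing read proportions per bin multiplied by bin number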
condition-info: c terminus: a fixed tail appended
readout-type: protein stability index

variant_label=R5K readout_type="protein stability index" numeric_result=1.88
variant_label=R5A readout_type="protein stability index" numeric_result=2.03
variant_label=P13K readout_type="protein stability index" numeric_result=2.56
variant_label=F10L readout_type="protein stability index" numeric_result=2.12
variant_label=S7F readout_type="protein stability index" numeric_result=2.01
variant_label=S3Q readout_type="protein stability index" numeric_result=2.61
variant_label=L22I readout_type="protein stability index" numeric_result=1.86
variant_label=P18T readout_type="protein stability index" numeric_result=1.4
variant_label=E8S readout_type="protein stability index" numeric_result=1.98
variant_label=P6M readout_type="protein stability index" numeric_result=1.36
variant_label=R5H readout_type="protein stability index" numeric_result=2.17
variant_label=L11S readout_type="protein stability index" numeric_result=1.91
variant_label=P13S readout_type="protein stability index" numeric_result=1.99
variant_label=K20E readout_type="protein stability index" numeric_result=1.94
variant_label=K20M readout_type="protein stability index" numeric_result=1.98
variant_label=P6V readout_type="protein stability index" numeric_result=1.9
variant_label=D19I readout_type="protein stability index" numeric_result=1.92
variant_label=K20Q readout_type="protein stability index" numeric_result=2.05
variant_label=S3E readout_type="protein stability index" numeric_result=1.45
variant_label=L4F readout_type="protein stability index" numeric_result=1.93
variant_label=F1P readout_type="protein stability index" numeric_result=3.64
variant_label=A2R readout_type="protein stability index" numeric_result=3.08
variant_label=Y14P readout_type="protein stability index" numeric_result=3.25
variant_label=L4E readout_type="protein stability index" numeric_result=2.65
variant_label=L4R readout_type="protein stability index" numeric_result=2.24
variant_label=L11C readout_type="protein stability index" numeric_result=1.86
variant_label=P9Y readout_type="protein stability index" numeric_result=2.29
variant_label=D19E readout_type="protein stability index" numeric_result=2.24
variant_label=P6L readout_type="protein stability index" numeric_result=1.8
variant_label=L16K readout_type="protein stability index" numeric_result=2.27
variant_label=P13R readout_type="protein stability index" numeric_result=1.68
variant_label=F1N readout_type="protein stability index" numeric_result=3.81
variant_label=D19Q readout_type="protein stability index" numeric_result=1.57
variant_label=K20R readout_type="protein stability index" numeric_result=1.94
variant_label=L16H readout_type="protein stability index" numeric_result=2.86
variant_label=G17C readout_type="protein stability index" numeric_result=1.05
variant_label=K20P readout_type="protein stability index" numeric_result=1.92
variant_label=P18I readout_type="protein stability index" numeric_result=2.31
variant_label=S3D readout_type="protein stability index" numeric_result=3.05
variant_label=K20Y readout_type="protein stability index" numeric_result=1.28
variant_label=P13E readout_type="protein stability index" numeric_result=1.95
variant_label=G17D readout_type="protein stability index" numeric_result=1.59
variant_label=P6A readout_type="protein stability index" numeric_result=1.12
variant_label=E8C readout_type="protein stability index" numeric_result=1.68
variant_label=S7G readout_type="protein stability index" numeric_result=2.07
variant_label=T12C readout_type="protein stability index" numeric_result=2.1
variant_label=L15T readout_type="protein stability index" numeric_result=2.19
variant_label=D19K readout_type="protein stability index" numeric_result=1.58
variant_label=N21P readout_type="protein stability index" numeric_result=1.31
variant_label=Y14S readout_type="protein stability index" numeric_result=2.21
variant_label=P13V readout_type="protein stability index" numeric_result=2.02
variant_label=L16I readout_type="protein stability index" numeric_result=1.51
variant_label=N21F readout_type="protein stability index" numeric_result=1.67
variant_label=F10N readout_type="protein stability index" numeric_result=3.22
variant_label=T23W readout_type="protein stability index" numeric_result=1.65
variant_label=T23F readout_type="protein stability index" numeric_result=1.3
variant_label=F10W readout_type="protein stability index" numeric_result=2.88
variant_label=S3H readout_type="protein stability index" numeric_result=1.87
variant_label=Y14N readout_type="protein stability index" numeric_result=3.22
variant_label=E8G readout_type="protein stability index" numeric_result=1.99
variant_label=S3L readout_type="protein stability index" numeric_result=1.76
variant_label=G17M readout_type="protein stability index" numeric_result=1.7
variant_label=K20C readout_type="protein stability index" numeric_result=1.18
variant_label=S3C readout_type="protein stability index" numeric_result=1.23
variant_label=E8I readout_type="protein stability index" numeric_result=2.19
variant_label=P6Q readout_type="protein stability index" numeric_result=2.16
variant_label=G17K readout_type="protein stability index" numeric_result=2.23
variant_label=D19W readout_type="protein stability index" numeric_result=3.08
variant_label=L16N readout_type="protein stability index" numeric_result=2.12
variant_label=P9G readout_type="protein stability index" numeric_result=2.18
variant_label=L4S readout_type="protein stability index" numeric_result=1.61
variant_label=L15F readout_type="protein stability index" numeric_result=1.67
